Reference source: patent US20250340552A1

Give measured Dmax for each item. Keep answers brief.
molecular target: Cbl-B (Homo sapiens, UniProt Q13191); construct: MSD-Based Assay for Degradation of Cbl-B in THP-1 Cells; endogenous in cells; host or cells: THP-1 (title) / Jurkat (protocol text); assay: MSD-based assay for degradation of Cbl-B in THP-1 cells; format: cell-based; details: Cbl-B degradation, Jurkat cells seeded (heading: THP-1 cells), 24 hours incubation, MSD readout; read-out: Dmax
Sequence (Q13191 whole entry): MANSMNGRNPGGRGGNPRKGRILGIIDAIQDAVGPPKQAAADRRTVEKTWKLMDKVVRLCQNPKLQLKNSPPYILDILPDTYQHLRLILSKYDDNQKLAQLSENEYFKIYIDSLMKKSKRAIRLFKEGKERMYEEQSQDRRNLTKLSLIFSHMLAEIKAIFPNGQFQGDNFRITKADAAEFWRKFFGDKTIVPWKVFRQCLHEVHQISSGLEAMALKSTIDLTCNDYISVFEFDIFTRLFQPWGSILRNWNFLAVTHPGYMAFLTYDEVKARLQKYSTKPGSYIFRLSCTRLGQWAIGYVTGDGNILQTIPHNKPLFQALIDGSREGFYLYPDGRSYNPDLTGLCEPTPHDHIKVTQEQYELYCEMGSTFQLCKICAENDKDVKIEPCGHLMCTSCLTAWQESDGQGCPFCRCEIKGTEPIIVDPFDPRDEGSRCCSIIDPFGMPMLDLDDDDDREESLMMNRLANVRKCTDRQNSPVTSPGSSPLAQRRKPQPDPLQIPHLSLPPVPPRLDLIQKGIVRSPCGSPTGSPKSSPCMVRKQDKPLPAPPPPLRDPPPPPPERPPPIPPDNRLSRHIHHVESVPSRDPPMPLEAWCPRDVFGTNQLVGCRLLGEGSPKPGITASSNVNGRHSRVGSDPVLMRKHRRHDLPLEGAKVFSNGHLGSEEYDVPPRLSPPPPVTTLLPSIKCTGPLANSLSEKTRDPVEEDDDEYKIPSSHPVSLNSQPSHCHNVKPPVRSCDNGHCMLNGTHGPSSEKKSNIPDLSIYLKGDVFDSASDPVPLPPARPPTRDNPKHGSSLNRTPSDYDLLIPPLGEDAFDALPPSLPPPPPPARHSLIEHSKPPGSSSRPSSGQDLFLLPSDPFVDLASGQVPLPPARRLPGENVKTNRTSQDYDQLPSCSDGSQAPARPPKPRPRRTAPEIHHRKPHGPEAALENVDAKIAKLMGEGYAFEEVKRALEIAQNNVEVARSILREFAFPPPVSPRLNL

Query Dmax for Cn1cnnc1[C@@H](c1cccc(-n2cc3c(C(F)(F)F)cc(-c4nccn4CCOCCN4CCC(CN5CCN(c6ccc7c(c6)CN([C@H]6CCC(=O)NC6=O)C7=O)CC5)CC4)cn3c2=O)c1)C1CCC1 (single isomer, unassigned)
< 30%

Query Dmax for Cn1cnnc1CC1(c2cccc(-n3cc4c(C(F)(F)F)cc(-c5nccn5CCOCCN5CCC(CN6CCN(c7ccc8c(c7)CN([C@H]7CCC(=O)NC7=O)C8=O)CC6)CC5)cn4c3=O)c2)COC1 (single isomer, unassigned)
< 30%

Query Dmax for Cn1cnnc1[C@@H](c1cccc(-n2cc3c(C(F)(F)F)cc(CN4CCN(c5ccc(C(=O)N6CCC(C7CCN(c8ccc9c(c8)CN([C@H]8CCC(=O)NC8=O)C9=O)CC7)CC6)cc5)CC4)cn3c2=O)c1)C1CCC1 (single isomer, unassigned)
> 70%

Query Dmax for CN(CCC(=O)N1CCC(CN2CCN(c3ccc4c(c3)CN([C@H]3CCC(=O)NC3=O)C4=O)CC2)CC1)Cc1cc(C(F)(F)F)c2cn(-c3cccc([C@H](c4nncn4C)C4CCC4)c3)c(=O)n2c1 (single isomer, unassigned)
50 to 70%

Query Dmax for Cn1cnnc1CC1(c2cccc(-n3cc4c(C(F)(F)F)cc(CN5CCC[C@H](OCc6ccc(CN7CCN(c8ccc9c(c8)CN([C@@H]8CCC(=O)NC8=O)C9=O)CC7)cc6)C5)cn4c3=O)c2)COC1 (single isomer, unassigned)
< 30%

Query Dmax for Cn1cnnc1CC1(c2cccc(-n3cc4c(C(F)(F)F)cc(CN5CCN(C(=O)CN6CCC(CN7CCN(c8ccc9c(c8)CN([C@H]8CCC(=O)NC8=O)C9=O)CC7)CC6)CC5)cn4c3=O)c2)COC1 (single isomer, unassigned)
50 to 70%

Query Dmax for CO[C@H]1C[C@@](c2cccc(-n3cc4c(C(F)(F)F)cc(CN5CCC(OCCN6CCC(CN7CCN(c8ccc9c(c8)CN([C@@H]8CCC(=O)NC8=O)C9=O)CC7)CC6)CC5)cn4c3=O)c2)(c2nncn2C)C1
30 to 50%

Query Dmax for Cn1cnnc1[C@@H](c1cccc(-n2cc3c(C(F)(F)F)cc(CN4CCC[C@H](OCCOCc5ccc(COCCNc6cccc7c6C(=O)N(C6CCC(=O)NC6=O)C7=O)cc5)CC4)cn3c2=O)c1)C1CCC1 (some centres unmarked)
30 to 50%
